# Tested on: HCC78
# ASSAY_COMMENT: cells
# MEASUREMENT_CONTEXT: Homo sapiens, HCC78, 72 h
# Description: Cytotoxicity against human HCC78 cells incubated for 72 hrs by MTT assay
OBSERVATION_TYPE: pIC50
Answers are plain numbers, as −log10 of the molar value.

| SMILES_CODE | pIC50 |
| --- | --- |
| COc1cc(N2CCN(CC(=O)N3CCCC3)C2=O)ccc1Nc1ncc(Cl)c(Nc2ccccc2S(=O)(=O)C(C)C)n1 | 6.57 |

Return reported pIC50 values for all items listed beneath this line.
1. CCN(CC)C(=O)CN1CCN(c2ccc(Nc3ncc(Cl)c(Nc4ccccc4S(=O)(=O)C(C)C)n3)c(OC)c2)C1=O
2. COc1cc(N2CCN(C(=O)C3CCOCC3)C2=O)ccc1Nc1ncc(Cl)c(Nc2ccccc2S(=O)(=O)C(C)C)n1
3. COc1cc(N2CCN(CC(=O)N3CCOCC3)C2=O)ccc1Nc1ncc(Cl)c(Nc2ccccc2S(=O)(=O)C(C)C)n1
4. COc1cc(N2CCN(CC(=O)N3CC(O)C3)C2=O)ccc1Nc1ncc(Cl)c(Nc2ccccc2S(=O)(=O)C(C)C)n1

[6.51, 6.16, 6.68, 6.96]

Return reported pIC50 values for all items listed beneath this line.
1. COc1cc(N2CCN(CC(N)=O)C2=O)ccc1Nc1ncc(Cl)c(Nc2ccccc2S(=O)(=O)C(C)C)n1
2. COc1cc(N2CCN(CCN(C)C)C2=O)ccc1Nc1ncc(Cl)c(Nc2ccccc2S(=O)(=O)C(C)C)n1

6.06
7.54

Param item = COc1cc(N2CCN(C[C@@H]3CO3)C2=O)ccc1Nc1ncc(Cl)c(Nc2ccccc2S(=O)(=O)C(C)C)n1 ; retrieve measured pIC50. 6.24

Origin of measurements: ChEMBL document CHEMBL4346688
